# testSummary: toxicity in mice (LD50)
# condition: mouse, in vivo, iv
Please go through the items and note down their LD50.
One number for each entry, in mg/kg.

{"compound": "C=CCN1CCc2cc(OC)c(OC)c3c2C1Cc1cc(OC)c(OC)cc1-3 (single isomer, unassigned; (+))", "LD50 (mg/kg)": 150}

Entry COc1cc2c(cc1OC)-c1c(OC)c(OC)cc3c1C(C2)N(C)CC3 (centres unmarked) has what LD50?
58.3

---

Please go through the items and note down their LD50.
# testSummary: toxicity in mice (LD50)
# condition: mouse, in vivo, sc.
Give the figure together with its unit, number first.

{"compound": "COc1cc2c(cc1OC)-c1c(OC)c(OC)cc3c1C(C2)N(C)CC3 (centres unmarked)", "LD50": "20 mg/kg"}

// next entry
Entry C=CCN1CCc2cc(OC)c(OC)c3c2C1Cc1cc(OC)c(OC)cc1-3 (single isomer, unassigned; (+)) has what LD50?
150 mg/kg

---

# testSummary: toxicity in mice (LD50)
# condition: mouse, in vivo, po, ig.
parameter: LD50 (mg/kg)
One number for each entry, in mg/kg.

Entry COc1cc2c(cc1OC)-c1c(OC)c(OC)cc3c1C(C2)N(C)CC3 (centres unmarked) [glaucine] has what LD50?
531
